Where do the numbers come from? From patent US20170260272A1.

target: T1, human LOX-1 (full-length, on cells) (human, UniProt P78380 1-273); test: flow cytometry: DiI-oxLDL binding to human LOX-1 transfected HEK293 cells
T1 construct: also called huLOX-1/HEK293 cells; human LOX-1 transfected HEK293 cells
Overview of recorded pIC50 for various binders
Here pIC50 is given on a logarithmic scale as minus log10 of the concentration in mol/L.

{"BINDER": "MOR22028 (antibody, human IgG1, lambda, L234A L235A, V domains shown, Human IgG1f LALA; also called MOR022028; MOR20228) VH: QVQLLESGGGLVQPGGSLRLSCAASGFTFSDYALHWVRQAPGKGLEWVSVISYAGGFKFYADSVKGRFTISRDNSKNTLYLQMNSLRAEDTAVYYCARSPGLTSYHDSWGQGTLVTVSS VL: QSVLTQPPSVSGAPGQRVTISCSGSSSNIGSNYVSWYQQLPGTAPKLLIHSSSHRPSGVPDRFSGSKSGTSASLAITGLQAEDEADYYCQSWDYESERVVFGGGTKLTVLG", "pIC50": 9.15}

Entry MOR022025 (antibody, human IgG1, lambda, L234A L235A, V domains shown, Human IgG1f LALA; also called MOR20225; MOR020225) VH: QVQLLESGGGLVQPGGSLRLSCAASGFTFSDYALHWVRQAPGKGLEWVSVISYQGGFIYYADSVKGRFTISRDNSKNTLYLQMNSLRAEDTAVYYCARSPGLTSYHDSWGQGTLVTVSS VL: QSVLTQPPSVSGAPGQRVTISCSGSSSNIGSNYVSWYQQLPGTAPKLLIHSTSHRPSGVPDRFSGSKSGTSASLAITGLQAEDEADYYCQSWDYESERVVFGGGTKLTVLG , pIC50 reported as 9.00

Entry MOR22031 (antibody, human IgG1, kappa, L234A L235A, V domains shown, Human IgG1f LALA; also called MOR022031; MOR20231) VH: QVQLVQSGAEVKKPGSSVKVSCKASGGTFSDYAISWVRQAPGQGLEWMGGIMPISGAPYYAQKFQGRVTITADESTSTAYMELSSLRSEDTAVYYCARDSSTSYYYYFDYWGQGTLVTVSS VL: DIQMTQSPSSLSASVGDRVTITCRASQDISSWLAWYQQKPGKAPKLLIYQASNLQSGVPSRFSGSGSGTDFTLTISSLQPEDFATYYCQQIDHTPFTFGQGTKVEIKR , pIC50 reported as 9.10

Entry MOR22034 (antibody, human IgG1, kappa, L234A L235A, V domains shown, Human IgG1f LALA; also called MOR022034; MOR20234) VH: QVQLVQSGAEVKKPGSSVKVSCKASGGTFSDYAISWVRQAPGQGLEWMGGIVPIVGTANYAQKFQGRVTITADESTSTAYMELSSLRSEDTAVYYCARDSSTSYYYYFDYWGQGTLVTVSS VL: DIQMTQSPSSLSASVGDRVTITCRASQDISSWLAWYQQKPGKAPKLLIYQASNLQSGVPSRFSGSGSGTDFTLTISSLQPEDFATYYCQQMWQFPITFGQGTKVEIKR , pIC50 reported as 9.22
